Data origin, for the record: PubChem BioAssay (NCI)

test system: SF-268 CNS; assay: NCI tumour cell line growth inhibition, 48 h
measurement kind: TGI (µM)

[[record]]
compound = "COc1cc(C2CC(=O)Nc3c2cc(Br)c2ccccc32)cc(Br)c1OC (stereo not given)"
measurement_kind = "TGI"
reading_unit = "µM"
qual = ">"
recorded_measurement = 100

[[record]]
compound = "COc1cccc(CC(C)=C(c2ccc(OCCCN(C)C)cc2)c2ccc(OCCCN(C)C)cc2)c1"
measurement_kind = "TGI"
reading_unit = "µM"
qual = "="
recorded_measurement = 2.05

[[record]]
compound = "CC(C)(C)c1cc(C(=O)/C=C/c2ccn[nH]2)cc(C(C)(C)C)c1O"
measurement_kind = "TGI"
reading_unit = "µM"
qual = "="
recorded_measurement = 6.39

[[record]]
compound = "Clc1ccccc1NN(Cc1ccncc1)c1ccccc1Cl"
measurement_kind = "TGI"
reading_unit = "µM"
qual = "="
recorded_measurement = 36.2

[[record]]
compound = "O=C(NN1C(=O)CSC1c1ccc(F)cc1)C(O)c1ccccc1 (stereo not given)"
measurement_kind = "TGI"
reading_unit = "µM"
qual = ">"
recorded_measurement = 100

